# measuredOn: binding between p34 protein and NEDD4-1 protein (Homo sapiens, UniProt P46934+Q9UHV2)
# Construct: FLAG or 6xHis (known only from the detection antibodies)
# Sequence (P46934 1-1319): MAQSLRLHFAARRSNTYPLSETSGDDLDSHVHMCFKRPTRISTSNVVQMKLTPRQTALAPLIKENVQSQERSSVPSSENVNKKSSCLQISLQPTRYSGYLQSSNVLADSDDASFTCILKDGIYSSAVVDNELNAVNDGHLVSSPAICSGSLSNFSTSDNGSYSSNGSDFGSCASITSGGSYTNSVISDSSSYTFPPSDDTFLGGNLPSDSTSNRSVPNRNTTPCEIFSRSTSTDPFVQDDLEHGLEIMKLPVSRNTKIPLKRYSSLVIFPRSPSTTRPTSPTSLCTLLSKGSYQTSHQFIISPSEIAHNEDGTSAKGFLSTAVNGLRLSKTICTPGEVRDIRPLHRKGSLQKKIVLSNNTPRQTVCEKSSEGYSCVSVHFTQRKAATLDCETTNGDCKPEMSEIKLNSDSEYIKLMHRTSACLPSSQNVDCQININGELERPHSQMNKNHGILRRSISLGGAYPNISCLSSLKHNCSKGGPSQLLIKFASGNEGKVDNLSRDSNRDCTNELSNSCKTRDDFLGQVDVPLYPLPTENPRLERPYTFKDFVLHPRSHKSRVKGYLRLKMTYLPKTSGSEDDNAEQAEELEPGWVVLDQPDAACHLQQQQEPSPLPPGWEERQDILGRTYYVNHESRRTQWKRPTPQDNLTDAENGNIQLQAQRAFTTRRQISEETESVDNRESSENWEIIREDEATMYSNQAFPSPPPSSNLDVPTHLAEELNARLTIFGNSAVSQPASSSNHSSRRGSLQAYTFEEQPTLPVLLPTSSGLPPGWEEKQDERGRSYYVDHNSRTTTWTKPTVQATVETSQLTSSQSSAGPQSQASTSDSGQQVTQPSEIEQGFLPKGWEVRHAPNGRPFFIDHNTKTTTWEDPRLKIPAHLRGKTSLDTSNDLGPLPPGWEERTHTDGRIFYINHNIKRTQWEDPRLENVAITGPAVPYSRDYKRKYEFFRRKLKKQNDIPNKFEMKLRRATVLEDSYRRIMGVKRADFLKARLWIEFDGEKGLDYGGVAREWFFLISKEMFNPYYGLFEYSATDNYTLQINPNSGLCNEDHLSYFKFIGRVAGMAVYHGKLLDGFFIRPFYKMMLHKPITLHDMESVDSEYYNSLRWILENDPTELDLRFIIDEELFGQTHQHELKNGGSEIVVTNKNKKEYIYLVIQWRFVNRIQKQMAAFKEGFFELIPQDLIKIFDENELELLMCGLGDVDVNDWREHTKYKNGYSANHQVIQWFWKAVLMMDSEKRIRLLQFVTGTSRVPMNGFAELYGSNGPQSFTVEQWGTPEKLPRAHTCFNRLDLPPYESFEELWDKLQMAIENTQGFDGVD
# Sequence (Q9UHV2 1-236): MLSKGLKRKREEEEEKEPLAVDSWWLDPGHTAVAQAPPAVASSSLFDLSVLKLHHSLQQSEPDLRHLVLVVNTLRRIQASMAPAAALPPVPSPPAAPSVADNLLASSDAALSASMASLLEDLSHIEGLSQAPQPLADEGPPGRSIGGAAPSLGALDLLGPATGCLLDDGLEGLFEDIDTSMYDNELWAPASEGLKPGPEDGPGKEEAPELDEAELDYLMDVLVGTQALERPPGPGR
# experiment: Inhibitory activity on binding between p34 and NEDD4-1, FRET (HTRF) assay
# details: pH 7.4, compound 10 μM; 1×PBS pH 7.4, 0.1% BSA, 2% DMSO; 384-well
Reported inhibition at 10 µM is given for each of the following compounds.
measurementName: inhibition at 10 µM (%)

INSERT INTO measurements (compound, measuredon, measuredvalue) VALUES
  ('O=C(NCc1cnccn1)C1CCN(Cc2c[nH]c3ccc(Cl)cc23)CC1', 'binding between p34 protein and NEDD4-1 protein (Homo sapiens, UniProt P46934+Q9UHV2)', 39),
  ('O=C(NCc1nccs1)C1CCN(Cc2c[nH]c3ccc(Cl)cc23)CC1', 'binding between p34 protein and NEDD4-1 protein (Homo sapiens, UniProt P46934+Q9UHV2)', 39.1),
  ('O=C(NCc1nccs1)N1CCN(Cc2c[nH]c3ccc(F)cc23)CC1', 'binding between p34 protein and NEDD4-1 protein (Homo sapiens, UniProt P46934+Q9UHV2)', 50.7),
  ('O=C(C1CCN(Cc2c[nH]c3ccc(C(F)(F)F)cc23)CC1)N1CCn2cc(C(F)(F)F)nc2C1', 'binding between p34 protein and NEDD4-1 protein (Homo sapiens, UniProt P46934+Q9UHV2)', 59.1),
  ('O=C(NCc1nc2ccccc2[nH]1)C1CCN(Cc2c[nH]cn2)CC1', 'binding between p34 protein and NEDD4-1 protein (Homo sapiens, UniProt P46934+Q9UHV2)', 48.1),
  ('O=C(NCc1cncs1)N1CCN(Cc2ccc3[nH]ccc3c2)CC1', 'binding between p34 protein and NEDD4-1 protein (Homo sapiens, UniProt P46934+Q9UHV2)', 44.1),
  ('CCC(NC(=O)C1CCN(Cc2c[nH]c3ccc(Cl)cc23)CC1)c1nc2ccccc2[nH]1 (stereo not drawn)', 'binding between p34 protein and NEDD4-1 protein (Homo sapiens, UniProt P46934+Q9UHV2)', 59),
  ('O=C(NCc1nc2ccccc2[nH]1)C1CCN(Cc2c[nH]c3ccc(F)cc23)CC1', 'binding between p34 protein and NEDD4-1 protein (Homo sapiens, UniProt P46934+Q9UHV2)', 30.5),
  ('O=C(NCc1cncs1)N1CCN(Cc2ccc3cc[nH]c3c2)CC1', 'binding between p34 protein and NEDD4-1 protein (Homo sapiens, UniProt P46934+Q9UHV2)', 48.7),
  ('O=C(NCc1nc2ccccc2[nH]1)C1CCN(Cc2c[nH]c3ccc(C(F)(F)F)cc23)CC1', 'binding between p34 protein and NEDD4-1 protein (Homo sapiens, UniProt P46934+Q9UHV2)', 42.8),
  ('O=C(NCc1nccs1)N1CCN(Cc2ccc3[nH]ccc3c2)CC1', 'binding between p34 protein and NEDD4-1 protein (Homo sapiens, UniProt P46934+Q9UHV2)', 49.7),
  ('O=C(NCc1nc2ccccc2[nH]1)C1CCN(Cc2ccc3[nH]ccc3c2)CC1', 'binding between p34 protein and NEDD4-1 protein (Homo sapiens, UniProt P46934+Q9UHV2)', 38.2);

Just for reference, patent US20200339537A1 is where these values come from.
